# subject of test: Casein kinase I isoform alpha (Homo sapiens, UniProt P48729)
# Sequence (P48729 whole entry, canonical isoform): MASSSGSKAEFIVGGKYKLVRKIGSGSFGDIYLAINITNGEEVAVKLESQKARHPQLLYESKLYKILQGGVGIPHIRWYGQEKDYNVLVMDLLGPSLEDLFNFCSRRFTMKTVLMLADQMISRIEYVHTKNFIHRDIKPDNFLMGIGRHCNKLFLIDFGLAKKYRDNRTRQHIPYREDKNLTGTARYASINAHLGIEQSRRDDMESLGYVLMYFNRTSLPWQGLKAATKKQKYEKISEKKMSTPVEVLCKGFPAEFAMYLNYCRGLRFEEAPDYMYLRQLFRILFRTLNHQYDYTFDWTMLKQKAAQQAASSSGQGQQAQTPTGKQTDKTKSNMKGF
# method: CSNK1A1 Assay 1
metric: IC50 (nM)
Give bare numbers, in nM.

Field request: IC50 | item: CN1CCc2[nH]c(-c3ccnc(NC(=O)[C@@H]4C[C@H]4F)c3)c(Nc3ccccc3)c2C1=O (relative stereo) [WO 2016/120196, Example 25]
63

###

# subject of test: Casein kinase I isoform alpha (Homo sapiens)
# method: CSNK1A1 Assay 2
Give IC50 for every item shown.
Your answer should be a number followed by the unit of measure.

Recorded results for 2 compounds are shown here.
compound	metric	assay value
CC1CN(C)C(=O)c2c1[nH]c(-c1ccnc(NC(=O)C(CC(F)F)c3ccc(F)cc3)c1)c2Nc1ccccc1 (mixture of isomers)	IC50	5.4 nM
Cc1cn(C)c(=O)c2c(Nc3ccccc3)c(-c3ccnc(NC(=O)Cc4ccc(F)cc4)c3)[nH]c12	IC50	4.2 nM

Look up IC50 with Casein kinase I isoform alpha (Homo sapiens) for this compound: CC(=O)Nc1cc(-c2[nH]c3c(c2Nc2ccccc2)C(=O)N(C)CC3)ccn1
11 nM
